Biological target: AHR (Homo sapiens, UniProt P35869)
Sequence (P35869 11-848): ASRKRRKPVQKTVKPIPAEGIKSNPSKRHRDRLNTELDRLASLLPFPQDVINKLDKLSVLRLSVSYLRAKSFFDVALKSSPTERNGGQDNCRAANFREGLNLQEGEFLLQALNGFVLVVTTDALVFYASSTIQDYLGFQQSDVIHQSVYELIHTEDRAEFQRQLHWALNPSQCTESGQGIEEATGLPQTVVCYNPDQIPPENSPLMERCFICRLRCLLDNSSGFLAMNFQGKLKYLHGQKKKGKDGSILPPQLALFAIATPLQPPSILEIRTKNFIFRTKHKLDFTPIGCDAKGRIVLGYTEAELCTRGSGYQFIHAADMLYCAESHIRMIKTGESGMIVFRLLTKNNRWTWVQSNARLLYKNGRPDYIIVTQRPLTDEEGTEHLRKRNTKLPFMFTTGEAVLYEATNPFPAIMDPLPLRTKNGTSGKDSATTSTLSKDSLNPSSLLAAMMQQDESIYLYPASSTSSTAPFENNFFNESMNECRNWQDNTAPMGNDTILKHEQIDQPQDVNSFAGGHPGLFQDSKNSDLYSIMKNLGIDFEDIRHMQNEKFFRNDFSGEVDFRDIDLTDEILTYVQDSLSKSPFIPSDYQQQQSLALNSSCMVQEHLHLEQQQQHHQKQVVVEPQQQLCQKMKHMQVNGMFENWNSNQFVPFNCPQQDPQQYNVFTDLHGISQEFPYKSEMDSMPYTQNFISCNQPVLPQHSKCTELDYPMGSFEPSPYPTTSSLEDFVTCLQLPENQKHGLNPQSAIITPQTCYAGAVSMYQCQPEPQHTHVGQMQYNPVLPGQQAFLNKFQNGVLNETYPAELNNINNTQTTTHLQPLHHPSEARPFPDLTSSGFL
Experiment: In vitro assay 1: antagonism in human cell line (transactivation assay, kynurenic acid prestimulated)
Conditions: Assay 1: AHR-luc Hum Antagonism IC50 [M], 150 μM kynurenic acid, 20 hours, firefly luciferase
Parameter: IC50 (M)
Give a bare numeral; the unit M is implied.

COC[C@H](CO)NC(=O)c1cc(-c2ccc(C(F)(F)F)cc2)nn(-c2cccc(F)c2)c1=O	6.37e-08
C[C@@H](O)CNC(=O)c1cc(-c2ccc(Cl)cc2)nn(-c2cccc(F)c2)c1=O	1.92e-07
Cc1ccc(-c2cc(C(=O)NCC(O)C(C)C)c(=O)n(-c3cc(F)cc(F)c3)n2)cc1 (stereo not shown) [Example 56]	4e-08

Now for another entry.
IC50 for O=C(NCC(O)C(F)(F)F)c1cc(-c2ccc(Cl)cc2)nn(-c2cccc(C(F)F)c2)c1=O (stereo not shown) is 8.8e-07
